Reported koff is given for each of the following binders.
# system: T1, Human IL2Rγ extracellular domain expressed with a C-terminal myc-myc-hexahistidine tag (human)
# T1 construct: also called hIL-2Rg-MMH; hIL-2RG-MMH
# T1 chain: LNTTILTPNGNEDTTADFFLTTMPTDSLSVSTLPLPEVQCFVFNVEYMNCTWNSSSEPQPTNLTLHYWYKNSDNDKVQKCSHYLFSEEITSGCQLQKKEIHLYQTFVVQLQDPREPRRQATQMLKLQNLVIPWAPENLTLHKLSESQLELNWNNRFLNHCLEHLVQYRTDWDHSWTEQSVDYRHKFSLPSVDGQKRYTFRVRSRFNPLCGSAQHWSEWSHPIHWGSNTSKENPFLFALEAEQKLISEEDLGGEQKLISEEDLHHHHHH
# experimental_details: SPR, captured mAb, 37C, dissociation pH 7.4
State just the number; it will be interpreted in s⁻¹.

Example binders with recorded koff:
| binder | display_unit | koff |
| --- | --- | --- |
| H4H13541P (antibody, human IgG4 S228P, kappa, V domains shown, anti-IL2Rgamma mAb expressed with human IgG4 Fc) VH: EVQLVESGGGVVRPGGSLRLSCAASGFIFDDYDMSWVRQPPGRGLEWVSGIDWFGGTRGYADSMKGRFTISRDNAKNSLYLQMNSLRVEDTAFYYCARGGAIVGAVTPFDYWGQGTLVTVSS VL: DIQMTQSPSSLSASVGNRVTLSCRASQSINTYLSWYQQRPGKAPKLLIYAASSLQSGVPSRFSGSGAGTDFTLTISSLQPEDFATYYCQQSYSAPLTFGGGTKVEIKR | s⁻¹ | 0.000532 |
| H4H12899P (antibody, human IgG4 S228P, kappa, V domains shown, anti-IL2Rgamma mAb expressed with human IgG4 Fc) VH: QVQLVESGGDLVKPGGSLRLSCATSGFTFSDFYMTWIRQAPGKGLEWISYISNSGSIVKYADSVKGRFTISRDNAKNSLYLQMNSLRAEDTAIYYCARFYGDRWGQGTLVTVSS VL: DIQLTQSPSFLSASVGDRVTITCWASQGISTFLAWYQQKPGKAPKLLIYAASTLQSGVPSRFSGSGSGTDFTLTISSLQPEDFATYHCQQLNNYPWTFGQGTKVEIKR | s⁻¹ | 0.000668 |

Okay, now this binder:
Tell me the measured koff of H4H13538P (antibody, human IgG4 S228P, kappa, V domains shown, anti-IL2Rgamma mAb expressed with human IgG4 Fc) VH: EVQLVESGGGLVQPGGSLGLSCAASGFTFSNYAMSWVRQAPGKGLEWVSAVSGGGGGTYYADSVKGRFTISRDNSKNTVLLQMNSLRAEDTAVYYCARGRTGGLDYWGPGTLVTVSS VL: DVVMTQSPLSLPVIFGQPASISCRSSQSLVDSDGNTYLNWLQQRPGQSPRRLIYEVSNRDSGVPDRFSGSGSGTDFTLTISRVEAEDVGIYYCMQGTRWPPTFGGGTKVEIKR , please.
0.000599
